# melting point annotations

For orientation, consider the following solved cases.
[[record]]
compound = "CCOCc1nc2c(N)nc(C)c(C)c2n1NC(C)C"
reported_endpoint = "melting point"
result = "110 to 120 °C"

[[record]]
compound = "OCc1nc2cnc3cccnc3c2n1NC1CCOCC1"
reported_endpoint = "melting point"
result = "203 to 205 °C"

[[record]]
compound = "Cc1nc(N)c2nc(CO)n(NC3CCCCC3)c2c1C"
reported_endpoint = "melting point"
result = "> 250 °C"

[[record]]
compound = "CCOCc1nc2c(N)nc(C)c(C)c2n1NCCCNC(=O)NC(C)C"
reported_endpoint = "melting point"
result = "203 to 205 °C"


Turning to the following compound.
Ask | Recorded melting point of CCOCc1nc2c(N)nc(C)c(C)c2n1NC1CCCCC1 , please.
Reply | 108 to 110 °C

Hey, just so you know, these numbers are from patent US20090270443A1.
